Molecular target: human Nectin-4 (protein used in the SPR affinity measurements) (human) (UniProt Q96NY8)
Sequence (Q96NY8 32-349 limits assumed): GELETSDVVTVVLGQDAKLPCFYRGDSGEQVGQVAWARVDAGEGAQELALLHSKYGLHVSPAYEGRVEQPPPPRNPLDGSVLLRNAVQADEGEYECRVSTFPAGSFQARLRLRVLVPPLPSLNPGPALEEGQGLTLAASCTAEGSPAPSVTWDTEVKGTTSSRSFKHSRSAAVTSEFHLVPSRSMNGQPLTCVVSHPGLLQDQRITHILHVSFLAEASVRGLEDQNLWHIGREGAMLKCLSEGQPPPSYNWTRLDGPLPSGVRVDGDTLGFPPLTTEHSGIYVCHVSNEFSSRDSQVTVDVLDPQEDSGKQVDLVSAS
Assay: SPR, human IgG1
So basically, if koff comes in under 0.006 s⁻¹ it's satisfied, and if it's 0.006 s⁻¹ or more it's not satisfied.

{"Binder": "H4L2 (antibody, human IgG1, V domains shown, human IgG1 isotype) VH: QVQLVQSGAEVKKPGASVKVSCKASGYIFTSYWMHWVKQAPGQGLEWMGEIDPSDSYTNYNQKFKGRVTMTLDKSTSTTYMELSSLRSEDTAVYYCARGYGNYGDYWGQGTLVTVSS VL: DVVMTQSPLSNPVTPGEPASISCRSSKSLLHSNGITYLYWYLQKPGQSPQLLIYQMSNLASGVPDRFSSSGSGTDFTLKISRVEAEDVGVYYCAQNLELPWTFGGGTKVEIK", "Answer Label": "satisfied"}
{"Binder": "H7L2 (antibody, human IgG1, V domains shown, human IgG1 isotype) VH: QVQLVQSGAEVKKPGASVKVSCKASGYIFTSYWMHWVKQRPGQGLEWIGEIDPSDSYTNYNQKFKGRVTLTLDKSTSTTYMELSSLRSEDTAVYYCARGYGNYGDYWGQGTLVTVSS VL: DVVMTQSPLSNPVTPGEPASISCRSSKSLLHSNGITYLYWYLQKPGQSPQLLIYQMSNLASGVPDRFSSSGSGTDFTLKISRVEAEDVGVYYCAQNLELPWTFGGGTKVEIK", "Answer Label": "not satisfied"}
{"Binder": "H2L0 (antibody, human IgG1, V domains shown, human IgG1 isotype) VH: QVQLVQSGAEVKKPGASVKVSCKASGYTFTSYWMHWVRQAPGQGLEWMGEIDPSDSYTNYNQKFKGRVTMTLDKSTSTTYMELSSLRSEDTAVYYCARGYGNYGDYWGQGTLVTVSS VL: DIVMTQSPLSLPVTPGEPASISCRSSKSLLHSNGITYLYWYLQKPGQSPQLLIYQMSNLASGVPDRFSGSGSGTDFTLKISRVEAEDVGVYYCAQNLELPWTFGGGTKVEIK", "Answer Label": "not satisfied"}
{"Binder": "H3L3 (antibody, human IgG1, V domains shown, human IgG1 isotype) VH: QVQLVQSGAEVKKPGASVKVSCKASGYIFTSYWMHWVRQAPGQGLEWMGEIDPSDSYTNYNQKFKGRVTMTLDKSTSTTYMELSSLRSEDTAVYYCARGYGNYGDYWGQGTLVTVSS VL: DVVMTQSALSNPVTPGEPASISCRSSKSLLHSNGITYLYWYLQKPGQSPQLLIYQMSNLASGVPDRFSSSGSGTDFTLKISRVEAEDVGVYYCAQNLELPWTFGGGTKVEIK", "Answer Label": "not satisfied"}
